# TGT: Hexose transporter 1 (Plasmodium falciparum)
# ASSAY OVERVIEW: ST_JUDE_LEISH: Cytotoxicity at 2uM final concentration against transgenic Leishmania Mexicana promastigotes LmPfHT that are glucose transport deficient and complemented with the Plasmodium falciparum hexose transporter. Activity is measured by DNA content using SYBR green in vitro
# Type: functional
PROPERTY LABEL: inhibition (%)
Respond with the bare value in %.

[[record]]
compound = "CCOC(=O)c1c(CN2CCN(C)CC2)n(Cc2ccccc2)c2cc(Br)c(O)cc12"
property_label = "inhibition"
output_unit = "%"
endpoint_result = 16.7

[[record]]
compound = "COc1ccc(CCNCc2ccc3nc(N)cc(C)c3c2)cc1"
property_label = "inhibition"
output_unit = "%"
endpoint_result = -2.84

[[record]]
compound = "CC(=O)Nc1ccc(CN2CCC(N(C)c3cc(NC(=O)c4cccc(F)c4)ccn3)CC2)cc1"
property_label = "inhibition"
output_unit = "%"
endpoint_result = -0.05

[[record]]
compound = "CN(c1ccc(NC(=O)CCOc2ccccc2)cc1)C1CCN(Cc2cccc(O)c2)CC1"
property_label = "inhibition"
output_unit = "%"
endpoint_result = -0.45

[[record]]
compound = "O=C(NC1CCN(CC2(c3ccc(Cl)cc3)CCC2)CC1)c1cc[nH]n1"
property_label = "inhibition"
output_unit = "%"
endpoint_result = -0.69


Query string: Using the record for `CC(=O)Nc1ccc(OCCN(CC(C)C)c2ccc(C#N)c(C(F)(F)F)c2)c(Cl)c1` , report its inhibition.
Result string: 2.7

Query string: Using the record for `CN(C)CCCOc1ccc(CN2CCC(c3c[nH]c4ccc(NCC5CCCCC5)cc34)CC2)cc1` , report its inhibition.
Result string: 3.5

Query string: Using the record for `Cc1c(C)c2c(c(C)c1O)CC[C@@](C)(C(=O)N1CCC(CN3CCC(c4c[nH]c5ccccc45)CC3)CC1)O2` , report its inhibition.
Result string: -1.76

Query string: Using the record for CCCCCC(C)C(C)c1cc(O)c2c(c1)OC1(C(C)C)CC(O)C(C)C2C1 (centres undefined) , report its inhibition.
Result string: 5.5

----------
Entries and their inhibition
# TGT: Hexose transporter 1 (Plasmodium falciparum) (UniProt O97467)
# ASSAY OVERVIEW: ST_JUDE_LEISH: Cytotoxicity at 2uM final concentration against transgenic Leishmania Mexicana promastigotes LmPfHT that are glucose transport deficient and complemented with the Plasmodium falciparum hexose transporter. Activity is measured by DNA content using SYBR green in vitro
# Format: functional
Respond with the bare value in %.

A selection of reference data follows.
[[record]]
compound = "N#Cc1ccc(N(CC(=O)NCCc2ccc(F)cc2)CC2CC2)c2ccccc12"
endpoint_result = -0.59

[[record]]
compound = "CC[C@H]1CN2CC[C@H]1C[C@@H]2[C@@H](O)c1cc(Cl)nc2ccc(OC)cc12"
endpoint_result = 8.14

[[record]]
compound = "Cc1cc(O)cc2c(C3CCN(CC4CCC(NC(=O)/C=C/c5ccccc5Cl)CC4)CC3)c[nH]c12 (stereo not given)"
endpoint_result = 4.35

[[record]]
compound = "CCOC(=O)CCCN1C(=O)CN=C(c2ccccc2)c2cc(Cl)ccc21"
endpoint_result = 0.13

[[record]]
compound = "Oc1ccc(CN2CCN(CCOC(c3ccccc3)c3ccccc3)CC2)cc1Cl"
endpoint_result = 3.98


Query string: Using the record for `CNCCc1c(O)ccc2ccccc12` , report its inhibition.
Result string: 3.27

Query string: Using the record for `N#Cc1c(Cl)cccc1Oc1ccc(S(=O)(=O)N2CCC(CN3CCC(c4c[nH]c5ccccc45)CC3)CC2)cc1` , report its inhibition.
Result string: -0.14

Query string: Using the record for `O=C(CCc1ccco1)NC1CCN(CC2(c3ccc(Cl)cc3)CCC2)CC1` , report its inhibition.
Result string: 8.13

Query string: Using the record for Cc1c(C(=O)NC2CCC(CN3CCC(c4c[nH]c5ccccc45)CC3)CC2)cnn1-c1c(Cl)cc(Cl)cc1Cl (stereo not given) , report its inhibition.
Result string: 1.93

Query string: Using the record for `CC[C@H]1CN2CC[C@H]1C[C@H]2[C@H](O)c1cc(-c2cccc(C)c2)nc2ccc(OC)cc12` , report its inhibition.
Result string: 2.64
